# System: Patio variety tomato seedlings
# experiment notes: Tomato epinasty test, volatile gas treatment
# Assay type: in vivo
# assay conditions: Gas 1000 ppm; ethylene 10 ppm v/v; scale of 0 to 10, 10 complete protection, 0 no protection
Reported Protection against ethylene-induced epinasty, rating values follow for various compounds
The answer should be written as a number, with no unit following it.

1. CCCCCCCCCCCCC1=CC1 | 10
2. O=C(O)CCCCCCC1=CC1 | 8
3. COCCOCCOCC1=CC1 | 10
4. CCCCCCCCC1C=C1 | 10
5. CC(C)(O)CCC1=CC1 | 8

CCC=CCC1=CC1(CCCCC)CCCCC has a reported Protection against ethylene-induced epinasty, rating of 10

CCCCN(CCCC)CC1=CC1 has a reported Protection against ethylene-induced epinasty, rating of 10

CCCCCCCCCCCCCC1=CC1 has a reported Protection against ethylene-induced epinasty, rating of 10

CCN(CC)CCCCCCCC1=CC1 has a reported Protection against ethylene-induced epinasty, rating of 10

CCCCCC1(CCCCC)C=C1 has a reported Protection against ethylene-induced epinasty, rating of 10

N#CCCCCCCCC1=CC1 has a reported Protection against ethylene-induced epinasty, rating of 10

----------
Reported Protection against ethylene-induced epinasty, rating values follow for various compounds
# System: Patio variety tomato seedlings
# experiment notes: Tomato epinasty test, volatile gas treatment
# Assay type: in vivo
# assay conditions: Gas 10 ppm; ethylene 10 ppm v/v; scale of 0 to 10, 10 complete protection, 0 no protection
The answer should be written as a number, with no unit following it.

1. C=CCCCCCCC1=CC1 | 10
2. CC(CCC1=CC1)CC(C)(C)C (centres unmarked) | 10
3. CCC=CCC1=CC1(CCCCC)CCCCC | 0
4. CCCCCCC1=CC1CCCCCC (centres unmarked) | 0

Next compound, please.
CCCCCC#CCCCCC1=CC1 has a reported Protection against ethylene-induced epinasty, rating of 10

----------
# Test system: Patio variety tomato seedlings
# experiment notes: Tomato epinasty test, volatile gas treatment
# Type: in vivo
# assay conditions: Gas 10 ppm; ethylene 10 ppm v/v; scale of 0 to 10, 10 complete protection, 0 no protection
Reported Protection against ethylene-induced epinasty, rating values follow for various molecules
The answer should be written as a number, with no unit following it.

CCCCCC(C)CC1=CC1 (stereo not shown) has a reported Protection against ethylene-induced epinasty, rating of 9.5

CCCCCCCCC1C=C1 has a reported Protection against ethylene-induced epinasty, rating of 0

CCCCCCC1=CC1 has a reported Protection against ethylene-induced epinasty, rating of 10

COCCCCCCCC1=CC1 has a reported Protection against ethylene-induced epinasty, rating of 9.5

CCCCCC1(CCCCC)C=C1 has a reported Protection against ethylene-induced epinasty, rating of 0

CCCCCCCCCC1=CC1 has a reported Protection against ethylene-induced epinasty, rating of 9.5

CCCCCCCCCCCCCC1=CC1 has a reported Protection against ethylene-induced epinasty, rating of 3.5

CCC=CCC1=C(CCCCC)C1 has a reported Protection against ethylene-induced epinasty, rating of 0

CC(C)CCCCCC1=CC1 has a reported Protection against ethylene-induced epinasty, rating of 10

CC[N+](C)(CC)CCCCCCCC1=CC1.[I-] has a reported Protection against ethylene-induced epinasty, rating of 6

CCC(=O)OCCC1=CC1 has a reported Protection against ethylene-induced epinasty, rating of 0

N#CCCCCCCCC1=CC1 has a reported Protection against ethylene-induced epinasty, rating of 2

CCCCCCCCCCCC1=CC1 has a reported Protection against ethylene-induced epinasty, rating of 10

FC(F)(F)CCCCC1=CC1 has a reported Protection against ethylene-induced epinasty, rating of 10

CC(=O)O.CCN(CC)CCCCCCCC1=CC1 has a reported Protection against ethylene-induced epinasty, rating of 2

CC(=O)OCCCCCCCC1=CC1 has a reported Protection against ethylene-induced epinasty, rating of 0

----------
# System: Patio variety tomato seedlings
# experiment notes: Tomato epinasty test, volatile gas treatment
# Assay type: in vivo
# assay conditions: Gas 10 ppm; ethylene 10 ppm v/v; scale of 0 to 10, 10 complete protection, 0 no protection
Threshold-based label: Protection against ethylene-induced epinasty, rating under 3 gives 1 (yes), Protection against ethylene-induced epinasty, rating not under 3 gives 0 (no).

These recorded examples may help you get a feel for the data.
1) CCOC(=O)CCCCCCC1=CC1 | 0 (no)
2) CC(C)(C)CCC1=CC1 | 0 (no)
3) OCCCCCCCC1=CC1 [Compound 5, 1-(7-Hydroxyheptyl)-cyclopropene] | 1 (yes)
4) CCCCCCCCCCCCCCC1=CC1 | 1 (yes)
5) CC(C)(O)CCC1=CC1 | 1 (yes)

Say whether its Protection against ethylene-induced epinasty, rating is strictly beneath 3. Entry: CCN(CC)C(=O)CCCCCCC1=CC1
1 (yes)

Say whether its Protection against ethylene-induced epinasty, rating is strictly beneath 3. Entry: CCCCCCCCC1=CC1
0 (no)

Say whether its Protection against ethylene-induced epinasty, rating is strictly beneath 3. Entry: CCCCC(CC)CCC1=CC1 (centres unmarked)
0 (no)

Say whether its Protection against ethylene-induced epinasty, rating is strictly beneath 3. Entry: CCCCCC1=CC1
0 (no)

Say whether its Protection against ethylene-induced epinasty, rating is strictly beneath 3. Entry: CCCCCC1=C(CCCCC)C1
1 (yes)

Say whether its Protection against ethylene-induced epinasty, rating is strictly beneath 3. Entry: CCCCCCCCCCCCCCCC1=CC1
0 (no)

Say whether its Protection against ethylene-induced epinasty, rating is strictly beneath 3. Entry: CCCCCCOCC1=CC1
0 (no)

----------
# Test system: Patio variety tomato seedlings
# experiment notes: Tomato epinasty test, volatile gas treatment
# Assay type: in vivo
# assay conditions: Gas 1000 ppm; ethylene 10 ppm v/v; scale of 0 to 10, 10 complete protection, 0 no protection
measured parameter: Protection against ethylene-induced epinasty, rating
The answer should be written as a number, with no unit following it.

Answered cases to consult:
1) CCCCCCCCCCCCCCC1=CC1 | 10
2) CCN(CC)C(=O)CCCCCCC1=CC1 | 7
3) CCC(=O)OCCC1=CC1 | 10

CC(=O)CCCCCCC1=CC1 has a reported Protection against ethylene-induced epinasty, rating of 9

CCCCCCCCC1=C(CCCCCCCC(=O)OC)C1 [Compound 21, Methyl Sterculate] has a reported Protection against ethylene-induced epinasty, rating of 9

CCCCCC1=C(CCCCC)C1 has a reported Protection against ethylene-induced epinasty, rating of 10

CC(=O)O.CCN(CC)CCCCCCCC1=CC1 has a reported Protection against ethylene-induced epinasty, rating of 10

CCCCCCCCCCCCCCCC1=CC1 has a reported Protection against ethylene-induced epinasty, rating of 10

CC(=O)OCCCCCCCC1=CC1 has a reported Protection against ethylene-induced epinasty, rating of 10

CCC=CCC1=C(CCCCC)C1 has a reported Protection against ethylene-induced epinasty, rating of 10

OCCCCCCCC1=CC1 [Compound 5, 1-(7-Hydroxyheptyl)-cyclopropene] has a reported Protection against ethylene-induced epinasty, rating of 10

CCCCCCC1=CC1CCCCCC (stereo not drawn) has a reported Protection against ethylene-induced epinasty, rating of 10

----------
Reported Protection against ethylene-induced epinasty, rating values follow for various compounds
# Test system: Patio variety tomato seedlings
# experiment notes: Tomato epinasty test, volatile gas treatment
# Format: in vivo
# assay conditions: Gas 10 ppm; ethylene 10 ppm v/v; scale of 0 to 10, 10 complete protection, 0 no protection
The answer should be written as a number, with no unit following it.

Answered cases to consult:
1. COCCOCCOCC1=CC1 | 3
2. O=C(O)CCCCCCC1=CC1 | 3
3. CCCCN(CCCC)CC1=CC1 | 3
4. CC(=O)CCCCCCC1=CC1 | 3
5. CC(C)N.O=C(O)CCCCCCC1=CC1 | 0
6. CCCCCCCC1=CC1 | 10

CCN(CC)CCCCCCCC1=CC1 has a reported Protection against ethylene-induced epinasty, rating of 3

CON=C(C)CCCCCCC1=CC1 (single isomer, unassigned) has a reported Protection against ethylene-induced epinasty, rating of 9.5

----------
# Tested on: Patio variety tomato seedlings
# experiment notes: Tomato epinasty test, volatile gas treatment
# Assay type: in vivo
# assay conditions: Gas 10 ppm; ethylene 10 ppm v/v; scale of 0 to 10, 10 complete protection, 0 no protection
# Procedure: The test procedure is designed to determine the ability of an compound according to the present invention to block the epinastic growth response induced by ethylene in tomato plants when the compound is administered either as a volatile gas or as a component of a spray solution. Treatment chambers are of an appropriate size for the test plants and are airtight. Each is fitted with a reusable septum to be used for injection of ethylene. […]
Reported Protection against ethylene-induced epinasty, rating values follow for various molecules

Answered cases to consult:
1) CCCCCCCCCCCCC1=CC1 [Compound 40] | 4
2) CCCCCCCCCCC1=CC1 [Compound 25] | 9

Next molecule, please.
CCCCCCCCC1=C(CCCCCCCC(=O)OC)C1 [Compound 21, Methyl Sterculate] has a reported Protection against ethylene-induced epinasty, rating of 5

Recorded values, source patent US6365549B2.
